- assay-info: photoluminescence quantum yield (fraction); solvent given as SMILES
- measurement-parameters: in CCO
# photoluminescence quantum yield per record follows
In your answer, state the number alone without any accompanying words.

// solved cases for photoluminescence quantum yield follow
{"columns": ["smiles-notation", "photoluminescence quantum yield"],
 "data": [
  ["Cc1cc(=O)oc2c3c4c(cc12)CCCN4CCC3", 0.8],
  ["CCOC(=O)c1cc(C(=O)OCC)c2c(C)ccc(OC(=O)OC(C)(C)C)c2n1", 0.22],
  ["CCOc1ccc2c(-c3nc(-c4ccccc4Cl)no3)cc(=O)oc2c1", 0.52]
]}

Prompt line: Entry C(=C\N1CCCC1)/c1nc2ccccc2nc1-c1ccccc1 : reported photoluminescence quantum yield = ?
Response line: 0.023

Prompt line: Entry CCOC(=O)c1sc(SC)c2c(=O)n(C)nnc12 : reported photoluminescence quantum yield = ?
Response line: 0.054

Prompt line: Entry N#Cc1ccc(/C=C2\OC(=O)c3cc(N)ccc32)cc1 : reported photoluminescence quantum yield = ?
Response line: 0.13

Prompt line: Entry Oc1ccc(-c2ccco2)cc1-c1nc2ccccc2s1 : reported photoluminescence quantum yield = ?
Response line: 0.0588

* * *

- assay-info: photoluminescence quantum yield (fraction); solvent given as SMILES
- measurement-parameters: in CC#N
measure-name: photoluminescence quantum yield
In your answer, state the number alone without any accompanying words.

Prompt line: Entry C[Si](C)(c1cccc2ccccc12)c1c2ccccc2cc2ccccc12 : reported photoluminescence quantum yield = ?
Response line: 0.62

Prompt line: Entry O=C1O[B-]2(OC1=O)OC(c1ccc3ccccc3c1)=CC(c1ccc3ccccc3c1)=[O+]2 : reported photoluminescence quantum yield = ?
Response line: 0.3

Prompt line: Entry CCOC(=O)c1c2c3c(ccc(F)c3c3cc4ccccc4cc13)N(C)C2=O : reported photoluminescence quantum yield = ?
Response line: 0.41

Prompt line: Entry CCN(CC)c1ccc2cc(/C=C/C3=CC(/C=C/c4cc5ccc(N(CC)CC)cc5oc4=O)=[O+][B-](F)(F)O3)c(=O)oc2c1 : reported photoluminescence quantum yield = ?
Response line: 0.012

Prompt line: Entry O=C1OC(c2ccccc2)=N/C1=C\c1ccc(N(c2ccccc2)c2ccccc2)cc1 : reported photoluminescence quantum yield = ?
Response line: 0.014

* * *

- assay-info: photoluminescence quantum yield (fraction); solvent given as SMILES
- measurement-parameters: in c1cc(-n2c3ccccc3c3ccccc32)cc(-n2c3ccccc3c3ccccc32)c1
Lab note: cut-off is 0.5. Strictly less in photoluminescence quantum yield is y. Exactly 0.5 or more is n.

{"columns": ["smiles-notation", "class"],
 "data": [
  ["c1ccc(-c2nc(-c3ccccc3)nc(-c3ccc(-c4ccc(N5c6ccccc6[Si](c6ccccc6)(c6ccccc6)c6ccccc65)cc4)cc3)n2)cc1", "y"],
  ["CC(C)(C)c1ccc2c(c1)c1cc(C(C)(C)C)ccc1n2-c1ccc(-c2ccc3c(c2)C2(c4cc(-c5ccc(-n6c7ccc(C(C)(C)C)cc7c7cc(C(C)(C)C)ccc76)cc5)ccc4-3)c3ccccc3S(=O)(=O)c3ccccc32)cc1", "n"],
  ["O=S(=O)(c1cccc(N2c3ccccc3Oc3ccccc32)c1)c1cccc(N2c3ccccc3Oc3ccccc32)c1", "y"],
  ["c1ccc(-c2nnc(-c3ccc(N4c5ccccc5N(c5ccccc5)c5ccccc54)cc3)o2)cc1", "y"],
  ["N#Cc1cc(-n2c3ccccc3c3ncccc32)c(-n2c3ccccc3c3ncccc32)cc1C#N", "n"]
]}

We now examine a further molecule.
Prompt line: In the record for O=C(c1ccccc1)c1cc2ccc1CCc1ccc(cc1-c1ccc(N(c3ccccc3)c3ccccc3)cc1)CC2 , is photoluminescence quantum yield less than 0.5?
Response line: y

* * *

- assay-info: photoluminescence quantum yield (fraction); solvent given as SMILES
- measurement-parameters: in C1CCOC1
Lab note: cut-off is 0.08. Strictly less in photoluminescence quantum yield is Condition met. Exactly 0.08 or more is Condition not met.

Please review the following examples before continuing.
{"columns": ["smiles-notation", "class"],
 "data": [
  ["F[B-]1(F)n2c(cc(-c3ccccc3)c2-c2ccccc2)C(c2ccccc2)=C2C=C(c3ccccc3)C(c3ccccc3)=[N+]21", "Condition not met"],
  ["CC(C)(C)c1ccc(C2=c3c(c4ccc(C(C)(C)C)cc4c4cc(C(C)(C)C)ccc34)=[N+]3C2=C(c2ccccc2)c2c(-c4ccc(C(C)(C)C)cc4)c4c5ccc(C(C)(C)C)cc5c5cc(C(C)(C)C)ccc5c4n2[B-]3(F)F)cc1", "Condition not met"],
  ["COc1ccc(C2=CC3=C(c4c(C)cc(C)cc4C)c4cc(-c5ccc(OC)cc5)c(-c5ccc(OC)cc5)n4[B-](F)(F)[N+]3=C2c2ccc(OC)cc2)cc1", "Condition not met"],
  ["CC(C)(C)c1ccc(C2=C(c3ccc(C(C)(C)C)cc3)[Si](c3ccccc3)(c3ccccc3)c3ccccc32)cc1", "Condition met"],
  ["CN(C)c1ccc(-c2ccc(-c3cc(N4CCCCC4)c(C#N)c4c3-c3ccccc3CC4)s2)cc1", "Condition not met"]
]}

Prompt line: In the record for CN(c1ccccc1)c1ccc(/C=C2\C(=O)c3ccccc3S2(=O)=O)cc1 , is photoluminescence quantum yield less than 0.08?
Response line: Condition met

Prompt line: In the record for CCCCCCCc1ccc(C2=[N+]3C(=C4c5cc(OCC(CC)CC)c(-c6ccc(CCCCCCC)o6)n5[B-](F)(F)[n+]5nnn(c54)[B-]3(F)F)C=C2OCC(CC)CC)o1 , is photoluminescence quantum yield less than 0.08?
Response line: Condition met

* * *

- assay-info: photoluminescence quantum yield (fraction); solvent given as SMILES
- measurement-parameters: in CC(C)=O
The following ranges of photoluminescence quantum yield define the classes used here: c1 = under 0.1, c2 = from 0.1 up to 0.5, c3 = 0.5 and over

Please review the following examples before continuing.
{"columns": ["compound", "class"],
 "data": [
  ["C#CCNC1=C2C(C)=CC(C)=[N+]2[B-](F)(F)n2c(C)cc(C)c21", "c1"],
  ["NNC(=O)NNN1C(=O)c2cc(S(=O)(=O)[O-])cc3c(N)c(S(=O)(=O)[O-])cc(c23)C1=O", "c2"],
  ["O=C1/C(=C\\c2ccc(N(c3ccccc3)c3ccccc3)cc2)S(=O)(=O)c2ccccc21", "c1"],
  ["CCN(CC)c1ccc2cc(/C=C/C(=C(C#N)C#N)c3ccc4c(c3)c3ccccc3n4CC)c(=O)oc2c1", "c2"],
  ["CC1=CC(c2ccc3cc(N(C)C)ccc3c2)=[O+][B-](F)(F)O1", "c3"]
]}

Prompt line: Which class does O=C1OC(c2ccccc2)=N/C1=C\c1ccc(N(c2ccccc2)c2ccccc2)cc1 fall in?
Response line: c1

Prompt line: Which class does CCN(CC)c1ccc(/C=C/C2=[O+][B-](F)(F)Oc3c2c(=O)oc2cc(N(CC)CC)ccc32)cc1 fall in?
Response line: c1

Prompt line: Which class does [C-]#[N+]c1ccc(-c2ccc(NC)cc2)cc1 fall in?
Response line: c3

Prompt line: Which class does CCC1=C(C)C2=C(C)c3cc(I)c(I)n3[B-](F)(F)[N+]2=C1C fall in?
Response line: c2

Prompt line: Which class does N#C/C=C/c1ccc2ccc3cccc4ccc1c2c34 fall in?
Response line: c3

Prompt line: Which class does [C-]#[N+]c1ccc(-c2ccc(N(C)C)cc2)cc1 fall in?
Response line: c3

Prompt line: Which class does O=S(=O)(c1ccc(-c2ccc(-c3nc4c5ccccc5c5ccccc5c4n3-c3ccccc3)cc2)cc1)c1ccc(-c2ccc(-c3nc4c5ccccc5c5ccccc5c4n3-c3ccccc3)cc2)cc1 fall in?
Response line: c3

Prompt line: Which class does CCN(CC)c1ccc2cc(/C(Cl)=C/C=C/C(=C(C#N)C#N)c3ccc4c(c3)c3ccccc3n4CC)c(=O)oc2c1 fall in?
Response line: c1

Prompt line: Which class does CCCCC1=Cc2c3ccc4cccc5ccc(c6cc(-c7ccc(N(c8ccccc8)c8ccccc8)cc7)n(c26)P1(=O)c1ccccc1)c3c45 (stereo unspecified) fall in?
Response line: c3

Prompt line: Which class does Cc1cc(C)c(B(c2ccc(-c3ccc(-c4nc5c6ccccc6c6ccccc6c5[nH]4)cc3)cc2)c2c(C)cc(C)cc2C)c(C)c1 fall in?
Response line: c3

* * *

- assay-info: photoluminescence quantum yield (fraction); solvent given as SMILES
- measurement-parameters: in ClC(Cl)Cl
# photoluminescence quantum yield per record follows
In your answer, state the number alone without any accompanying words.

// solved cases for photoluminescence quantum yield follow
{"columns": ["smiles-notation", "measure-name", "reported-measurement"],
 "data": [
  ["Cc1ccc(C2=C3C=CC(c4ccccc4)=[N+]3[B-](F)(F)n3c2ccc3-c2ccccc2)cc1", "photoluminescence quantum yield", 0.31],
  ["CCN(CC)c1ccc2cc(-c3cc(SC)c(C#N)c(=O)o3)c(=O)oc2c1", "photoluminescence quantum yield", 0.66],
  ["CC1=CC(C)=[N+]2C1=C(c1ccc(I)cc1)c1c(C)cc(C)n1[B-]2(Oc1ccccc1)Oc1ccccc1", "photoluminescence quantum yield", 0.06],
  ["CN(C)c1ccc(C2=Cc3cccc[n+]3[B-](F)(F)O2)cc1", "photoluminescence quantum yield", 0.705],
  ["CCCC1(CCC)c2cc(C=C(C#Cc3ccccc3)C#Cc3ccccc3)ccc2-c2ccc(C=C(C#Cc3ccccc3)C#Cc3ccccc3)cc21", "photoluminescence quantum yield", 0.31]
]}

Prompt line: Entry Cc1cc2c(o1)=CC1=Cc3cc4oc(C)cc4n3[B-](F)(F)[N+]=21 : reported photoluminescence quantum yield = ?
Response line: 0.96
